Consider the following compounds and their measured pEC50 readings.
Tested on: pDNA-PK induction in HCT116 tumour spheroids
protocol details: Multicellular tumour spheroid + radiation, pDNA-PK (ser2056) inhibition, immunohistochemical endpoint, HCT116
Type: cell-based
recorded conditions: Homo sapiens, HCT-116; 20 Gy, 2 hours following radiation, 20% O2; Example 9 Study 2; read-out: Spheroid Cell line: HCT116 Immunohistochemical endpoint pDNA-PK inhibition EC50
pEC50: −log10 of the molar value.

Solved entries (count: 8):
Per the records, this compound ( `NC(=O)Nc1cnc2cc(N3CCOCC3)nc(O[C@H]3CC[C@@H](Nc4ncccn4)CC3)c2c1` ) has pEC50 equal to 5.00 to 6.00

The compound identified as `CC(=O)NC(=O)c1cnc2cc(N3CCOCC3)nc(O[C@H]3CC[C@@H](n4ccnc4)CC3)c2c1` registered its pEC50 at 4.00 to 5.00

Input c1ccc(CSc2cnc3cc(N4CCOCC4)nc(O[C@H]4CC[C@@H](Nc5ncccn5)CC4)c3c2)cc1 [Compound 200c] . Output pEC50: 4.00 to 5.00

Entry `CN(C)CCOc1cnc(N[C@H]2CC[C@@H](Oc3nc(N4CCOCC4)cc4ncccc34)CC2)nc1` — recorded pEC50 = 6.30 to 8.00

Sure, the documented pEC50 for `c1cnc2cc(N3CCOCC3)nc(O[C@H]3CC[C@@H](Nc4ncc(OCc5ncco5)cn4)CC3)c2c1` is 5.00 to 6.00

Kindly note the recorded pEC50 for O=C(Nc1ccccn1)[C@H]1CC[C@@H](Oc2nc(N3CCOCC3)cc3ncccc23)CC1 [Compound 154c] , which is 5.00 to 6.00

// sample `O=S1(=O)CCCN1c1cnc2cc(N3CCOCC3)nc(O[C@H]3CC[C@@H](Nc4ncccn4)CC3)c2c1` , its pEC50 was 4.00 to 5.00

response.value for `NCCOc1cnc(N[C@H]2CC[C@@H](Oc3nc(N4CCOCC4)cc4ncccc34)CC2)nc1` (field: pEC50) = 5.00 to 6.00

Consider the additional compound presented here.
Lab book: pEC50 of `O=C(Cn1c(=O)n(C2CCOCC2)c2nc(N[C@H]3CC[C@@H](Oc4nc(N5CCOCC5)cc5ncccc45)CC3)ncc21)N1CCC1` noted as 6.30 to 8.00
